# Tested on: NCI-H522 lung
# PROCEDURE_DETAILS: NCI tumour cell line growth inhibition, 48 h; in the data active = GI50 below about 0.43 µM; inactive = the rest
Returns: one label drawn from active, inactive

Below, 5 compounds whose answers are already recorded.
{"COMPOUND": "CCc1c2c(nc3ccc(OCc4ccc(B(O)O)cc4)cc13)-c1cc3c(c(=O)n1C2)COC(=O)[C@]3(O)CC", "GROUP": "active"}
{"COMPOUND": "Cc1c2cnccc2c(C)c2c1c1cc(C#N)ccc1n2C", "GROUP": "active"}
{"COMPOUND": "CCSC1=NC2C(N(CC)C(=O)N2CC)N1/N=C/C=C/c1ccccc1[N+](=O)[O-] (configuration not stated)", "GROUP": "active"}
{"COMPOUND": "CCN1C(=O)N(CC)C2C1NN=c1s/c(=C\\c3ccc(Cl)cc3Cl)c(=O)n12 (configuration not stated)", "GROUP": "active"}
{"COMPOUND": "COc1ccc(C2=Nn3c(nnc3-c3cc(Cl)cc(Cl)c3Cl)SC2)cc1", "GROUP": "active"}

Query string: Assay outcome for CC1CC(C)CC(C)C(O)/C(C#N)=C/C=C/CC(C2CCCC2C(=O)O)OC(=O)CC(O)C(C)C1 (configuration not stated) : what was it?
Result string: active

Query string: Test call for this compound, please: CN1CCC(CNc2cc(C3(C(=O)Nc4cc(C(=O)Nc5ccc(Cl)c(C(F)(F)F)c5)ccc4F)CC3)ncn2)CC1
Result string: inactive

Query string: What outcome does the record of this test show for COc1cccc(-c2nc3cc(NC(=O)c4ccc(Cl)c(C#N)c4)ccc3o2)c1 ?
Result string: inactive

Query string: Would you mind telling me which call this test gave Nc1ncn([C@@H]2S[C@H](CO)[C@@H](O)[C@@H]2F)c(=O)n1 ?
Result string: inactive

Query string: Check the results log: what was the call for O=C(Nc1cccc(Cl)c1)Nn1cnnc1 ?
Result string: inactive

Query string: Check the results log: what was the call for Cc1cc([NH-])c([NH-])cc1C.[Cl][Pt+2][Cl] ?
Result string: inactive

Query string: For CC1=C2C(=C[C@@](C)(CO)[C@@H]2OC(=O)N(C)CCN(C)C(=O)OC(C)(C)C)C(=O)[C@](C)(O)C12CC2 , what call appears in the results of this test?
Result string: inactive

----------
# Tested on: SR leukemia
# PROCEDURE_DETAILS: NCI tumour cell line growth inhibition, 48 h
QUANTITY_MEASURED: TGI

// known answers, use as guide
{"COMPOUND": "Cc1ccc2c(c1)-c1nc(N)c(C#N)c(-c3ccc(Cl)cc3)c1CCS2(=O)=O", "TGI": "65.6 µM"}
{"COMPOUND": "COC(=O)C1=CO[C@@H](OC2CC(CO)C(O)C(O)C2O)[C@@H]2[C@@H](C)[C@@H](OC(=O)/C=C/c3ccccc3)[C@@H](O)[C@H]12 (some centres undefined) (tested in a mixture with another compound)", "TGI": "> 100 µM"}
{"COMPOUND": "Fc1ccc(C(OCCN2CCN(CCCc3ccccc3)CC2)c2ccc(F)cc2)cc1", "TGI": "10 µM"}
{"COMPOUND": "Cc1ccc(Nc2nc3[nH]ccc3c(=O)[nH]2)cc1", "TGI": "> 100 µM"}
{"COMPOUND": "CCC/C(Cl)=N\\OC(=O)Nc1ccc(F)cc1", "TGI": "5.49 µM"}

Note to self: TGI recorded for C[C@@H](NC(C#N)c1ccco1)c1ccccc1 (some centres undefined) was > 100 µM

Noted for O=C(/C=C/c1ccccc1)Oc1cccc2cccnc12 : its TGI reads > 100 µM

Sure, the documented TGI for COc1cc(C2c3c(ccc4ccccc34)C(=O)C3CCC(=O)N32)cc(OC)c1OC (centres undefined) is > 50 µM

Value of TGI reported for the compound COC(=O)/C(=N\NC(C)(C)C)C(C(=O)OC)C(=O)C(=O)Nc1cc(Cl)ccc1Cl (centres undefined) is > 100 µM

Ref: PubChem BioAssay (NCI)
